test: Cytotoxicity against human HaCaT cells assessed as reduction in cell viability after 48 hrs by MTT assay; format: cell-based
property label: CC50 at 48 h (µM)
A number alone suffices; assume µM.

C=C1[C@@H]2CC[C@H]3[C@]4(C)CCC[C@@](C)(C(=O)O)[C@H]4CC[C@]3(C2)[C@H]1OC(=O)C=C(C)C; 147

[in] Please supply the value of reported CC50 at 48 h for the item C=C1C[C@@]23CC[C@H]4[C@@](C)(CCC[C@@]4(C)C(=O)O)[C@@H]2CC[C@@H]1C3 [KAURENOIC ACID]
[out] 109

###

assay: Selectivity index, ratio of CC50 for cytotoxicity against human SH-SY5Y cells to LC50 for antischistosomal activity against Schistosoma mansoni BH; format: toxicity, cell-based; settings: read-out: Selectivity Index
Listed next: entries and their corresponding selectivity ratio.
Just the number, please, no unit after it.

C=C1C[C@@]23CC[C@H]4[C@@](C)(CCC[C@@]4(C)C(=O)O)[C@@H]2CC[C@@H]1C3; 1.7

Kindly review the next molecule as well.
[in] Input C=C1[C@@H]2CC[C@H]3[C@]4(C)CCC[C@@](C)(C(=O)O)[C@H]4CC[C@]3(C2)[C@H]1OC(=O)C=C(C)C , output reported selectivity ratio.
[out] 9.1

###

assay: Cytotoxicity against human SH-SY5Y cells assessed as reduction in cell viability after 48 hrs by MTT assay; type: cell-based
property label: CC50 at 48 h (µM)
Entry rule: numbers only, all in µM.

C=C1C[C@@]23CC[C@H]4[C@@](C)(CCC[C@@]4(C)C(=O)O)[C@@H]2CC[C@@H]1C3; 45.4

Alright, here's another compound for you.
[in] Output measured CC50 at 48 h for this item: C=C1[C@@H]2CC[C@H]3[C@]4(C)CCC[C@@](C)(C(=O)O)[C@H]4CC[C@]3(C2)[C@H]1OC(=O)C=C(C)C
[out] 106
